- protocolDescription: NCI Yeast Anticancer Drug Screen. Data for the rad50 strain (AID 155);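 further: 0% = growth of vehicle-only cultures of the same strain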
- measurementSetup: S. cerevisiae rad50 strain growth inhibition, stronger effect = higher value; at 50.0 µM unless noted
- Method: Growth inhibition of yeast strains with defined genetic alterations is measured as a screen for potential anti-cancer activity. Selected strains with alterations in DNA damage repair or cell cycle control were exposed to compounds and growth inhibition was measured relative to vehicle treated controls. The strain used in this assay is rad50
Compounds without any hit were thinned out: in the full panel of roughly 79,000, 15% have a hit.
A collection of compounds and their measured growth inhibition
Form entry: value (%) — number only.

compound	obsValue
Cc1cccc(NC(=O)c2ccc(Cl)cc2Cl)c1	9.1
O=C(O)c1ccc(Nc2c3ccccc3nc3ccccc23)cc1	49
CC(C)Cc1c(C#N)c(C#N)c(N)n1Cc1ccccc1	3.05
COC1/C=C/OC2(C)Oc3c(C)c(O)c4c(c3C2=O)C(N)=C(NC2CC2)C(=NC(=O)/C(C)=C\C=C\C(C)C(O)C(C)C(O)C(C)C(OC(C)=O)C1C)C4=O (stereo not given)	15.7

Now look at this entry.
In plain terms, CCOC(=O)C1SC(=Nc2ccccc2)N=C1C (stereo not given) has a documented growth inhibition of 11.3
